Target: sigma-2 receptor/transmembrane protein 97 (TMEM97) (Rattus norvegicus)
Sequence (Q5U3Y7 whole entry): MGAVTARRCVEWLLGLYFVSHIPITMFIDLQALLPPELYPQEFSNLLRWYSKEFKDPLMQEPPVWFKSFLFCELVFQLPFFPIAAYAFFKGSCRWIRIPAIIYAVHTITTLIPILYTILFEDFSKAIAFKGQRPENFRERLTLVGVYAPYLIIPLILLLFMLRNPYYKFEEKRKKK
Assay: radioligand competition with [3H]DTG plus […]
MEASURED_ATTRIBUTE: pKi
Numbers only, as −log10 of the molar value.

The reported pKi of the compound O=c1oc2cc(NC(=S)Nc3ccc4c(c3)oc(=O)n4CCCCN3CCN(c4ccc(F)cc4)CC3)ccc2n1CCCCN1CCN(c2ccc(F)cc2)CC1 [MAM03055A] was 7.25

###

Biological target: UniProt Q9R0C9
Sequence (Q9R0C9 whole entry): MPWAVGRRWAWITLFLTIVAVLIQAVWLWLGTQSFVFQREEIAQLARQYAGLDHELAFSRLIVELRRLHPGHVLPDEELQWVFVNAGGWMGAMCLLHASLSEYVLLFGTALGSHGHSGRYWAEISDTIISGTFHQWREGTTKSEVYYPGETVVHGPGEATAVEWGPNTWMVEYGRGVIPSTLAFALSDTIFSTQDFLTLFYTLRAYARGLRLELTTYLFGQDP
MEASURED_ATTRIBUTE: Ki (µM)
Give bare numbers, in µM.

Lookup result for O=c1oc2cc(NC(=S)Nc3ccc4c(c3)oc(=O)n4CCCCN3CCN(c4ccc(F)cc4)CC3)ccc2n1CCCCN1CCN(c2ccc(F)cc2)CC1 [MAM03055A] ; measured Ki: 3.37
